target: Cholinesterase (Homo sapiens)
Sequence (P06276 whole entry): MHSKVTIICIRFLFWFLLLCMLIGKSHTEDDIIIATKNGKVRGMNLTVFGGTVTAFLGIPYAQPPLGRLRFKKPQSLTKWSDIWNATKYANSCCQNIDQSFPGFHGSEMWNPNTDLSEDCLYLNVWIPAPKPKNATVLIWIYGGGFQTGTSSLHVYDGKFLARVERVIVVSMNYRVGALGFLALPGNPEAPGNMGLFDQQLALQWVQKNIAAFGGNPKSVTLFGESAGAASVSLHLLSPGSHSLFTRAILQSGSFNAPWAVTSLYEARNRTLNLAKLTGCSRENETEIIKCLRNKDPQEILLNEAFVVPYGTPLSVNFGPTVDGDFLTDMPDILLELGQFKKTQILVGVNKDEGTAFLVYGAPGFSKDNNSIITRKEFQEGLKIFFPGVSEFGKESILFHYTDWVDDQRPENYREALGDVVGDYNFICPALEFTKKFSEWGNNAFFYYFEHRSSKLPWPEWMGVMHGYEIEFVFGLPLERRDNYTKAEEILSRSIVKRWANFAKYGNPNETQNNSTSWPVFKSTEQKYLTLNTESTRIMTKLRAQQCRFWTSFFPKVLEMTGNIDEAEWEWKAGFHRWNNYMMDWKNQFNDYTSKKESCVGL
The threshold is 100 nM. Values of IC50 beneath it are tagged fulfilled; values meeting or exceeding it are tagged not fulfilled.

A selection of reference data follows.
{"compound-structure-string": "O=C(CNCc1ccccc1)Nc1ccc2nc3n(c(=O)c2c1)CCC3", "class-assignment": "not fulfilled"}
{"compound-structure-string": "C=CCCNCC(=O)Nc1ccc2nc3n(c(=O)c2c1)CCC3", "class-assignment": "fulfilled"}

Prompt: Strictly below 100 nM: is that where IC50 of CCCCCCCCNCC(=O)Nc1ccc2nc3n(c(=O)c2c1)CCC3 sits?
Completion: fulfilled

Prompt: Strictly below 100 nM: is that where IC50 of CCCNCC(=O)Nc1ccc2nc3n(c(=O)c2c1)CCC3 sits?
Completion: not fulfilled

###

Recorded pIC50 for the following compounds
target: UniProtKB P06276
// pIC50 is dimensionless: -log10 of concentration (M)

Before answering, review these 4 worked examples.
{"compound-structure-string": "CCCCCCCCCCNCC(=O)Nc1ccc2nc3n(c(=O)c2c1)CCC3", "pIC50": 7.43}
{"compound-structure-string": "CCCCCCCCCCCCNCC(=O)Nc1ccc2nc3n(c(=O)c2c1)CCC3", "pIC50": 7.57}
{"compound-structure-string": "C=CCNCC(=O)Nc1ccc2nc3n(c(=O)c2c1)CCC3", "pIC50": 7.78}
{"compound-structure-string": "O=C(CNCc1ccccc1F)Nc1ccc2nc3n(c(=O)c2c1)CCC3", "pIC50": 6.97}

Prompt: Which pIC50 reading was recorded for the compound O=C(CNCc1ccccc1[N+](=O)[O-])Nc1ccc2nc3n(c(=O)c2c1)CCC3 ?
Completion: 6.99

Prompt: Which pIC50 reading was recorded for the compound CCNCC(=O)Nc1ccc2nc3n(c(=O)c2c1)CCC3 ?
Completion: 6.00

Prompt: Which pIC50 reading was recorded for the compound CCCCCCCCCCCCCCCCNCC(=O)Nc1ccc2nc3n(c(=O)c2c1)CCC3 ?
Completion: 8.36

Prompt: Which pIC50 reading was recorded for the compound N#Cc1ccccc1CNCC(=O)Nc1ccc2nc3n(c(=O)c2c1)CCC3 ?
Completion: 7.52

Prompt: Which pIC50 reading was recorded for the compound O=C(CNCCCc1ccccc1)Nc1ccc2nc3n(c(=O)c2c1)CCC3 ?
Completion: 7.68

Prompt: Which pIC50 reading was recorded for the compound CCCCCCNCC(=O)Nc1ccc2nc3n(c(=O)c2c1)CCC3 ?
Completion: 7.98

Prompt: Which pIC50 reading was recorded for the compound CCCCNCC(=O)Nc1ccc2nc3n(c(=O)c2c1)CCC3 ?
Completion: 6.97

Prompt: Which pIC50 reading was recorded for the compound C#CCNCC(=O)Nc1ccc2nc3n(c(=O)c2c1)CCC3 ?
Completion: 7.91

Prompt: Which pIC50 reading was recorded for the compound CC(C)=CCNCC(=O)Nc1ccc2nc3n(c(=O)c2c1)CCC3 ?
Completion: 7.79

Prompt: Which pIC50 reading was recorded for the compound O=c1c2ccccc2nc2n1CCC2 ?
Completion: 4.35

Prompt: Which pIC50 reading was recorded for the compound Cc1ccccc1CNCC(=O)Nc1ccc2nc3n(c(=O)c2c1)CCC3 ?
Completion: 6.97

Prompt: Which pIC50 reading was recorded for the compound O=C(CNCc1cc(F)cc(F)c1)Nc1ccc2nc3n(c(=O)c2c1)CCC3 ?
Completion: 8.63
